- EXPERIMENT SUMMARY: chemical genetic growth profiling, strain panel (AID 1159580);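 note: tested at 20 µM; growth read once vehicle control cultures reached saturation at 30 °C; 1 = growth at the plate median or of vehicle wells; lower values mean less growth of the strain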
- TEST CONTEXT: S. cerevisiae deletion strains, growth OD, locus YHR142W, strain chs7, hits give low values
Screen size: about 5,500 compounds; about 2,000 (36%) were called active. Roughly 18% stayed inconclusive and do not appear here. The list shows a part of the results.

# QUERY SMILES, normalized growth
data = [
    ("O=C1C[C@@H](c2ccc(O)cc2)Oc2cc(O)cc(O)c21", "0.942 (inactive)"),
    ("COc1ccc([C@@H]2CC(=O)c3c(O)cc(O)cc3O2)cc1O", "0.918 (inactive)"),
    ("CN=C(NC#N)NCCSCc1nc(N=C(N)N)cs1", "0.947 (inactive)"),
]

###

- EXPERIMENT SUMMARY: chemical genetic growth profiling, strain panel (AID 1159580)
- TEST CONTEXT: S. cerevisiae deletion strains, growth OD, locus YGL248W, strain PDE1, hits give low values
The campaign covered roughly 5,500 compounds. About 2,000 (36%) were called active. Roughly 18% stayed inconclusive and do not appear here. The list shows a part of the results.

# MOLECULE, normalized growth
rows = [
    ("OC(CCN1CCCCC1)(c1ccccc1)c1ccccc1", 1.01),
    ("CN1C2CC3C[C@H]1C(O3)C2O (some centres not stated)", 1.01),
    ("CC1(C)C2CC[C@]3(C)C(C(=O)C=C4[C@@H]5C[C@@](C)(C(=O)O)CC[C@]5(C)CC[C@]43C)[C@@]2(C)CC[C@@H]1OC(=O)CCC(=O)O (some centres not stated)", 1.02),
    ("O=c1ccc2cc(O)c(O)cc2o1", 1.01),
    ("C[N+](C)(C)CCOP(=O)([O-])OP(=O)(O)OC[C@H]1OC(n2ccc(N)nc2=O)[C@H](O)[C@@H]1O (some centres not stated)", 1.02),
    ("COC1C(O)C(O)C(O)[C@@H](O)C1O (some centres not stated)", 1.01),
    ("O=C(O)c1ccccc1OP(=O)(O)O", 1.02),
    ("NC[C@@H]1O[C@H](O[C@@H]2[C@@H](CO)OC(O[C@@H]3[C@@H](O)[C@H](N)C[C@H](N)[C@H]3OC3O[C@H](CN)[C@@H](O)[C@H](O)[C@H]3N)[C@@H]2O)[C@H](N)[C@@H](O)[C@@H]1O (some centres not stated)", 1.01),
    ("N=c1nc(N2CCCCC2)cc(N)n1O", 0.981),
    ("Cc1c(N(C)C)c(=O)n(-c2ccccc2)n1C", 0.998),
    ("COc1ccc2cc1Oc1ccc(cc1)C[C@H]1c3cc(c(OC)cc3CCN1C)Oc1c(OC)c(OC)cc3c1[C@H](C2)N(C)CC3", 1),
    ("CC1(C)C2CC[C@]3(C)C(C(=O)C=C4[C@@H]5C[C@@](C)(C(=O)O)CC[C@]5(C)CC[C@]43C)[C@@]2(C)CC[C@@H]1O (some centres not stated)", 0.985),
]

###

- EXPERIMENT SUMMARY: chemical genetic growth profiling, strain panel (AID 1159580);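 note: tested at 20 µM; growth read once vehicle control cultures reached saturation at 30 °C; 1 = growth at the plate median or of vehicle wells; lower values mean less growth of the strain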
- TEST CONTEXT: S. cerevisiae deletion strains, growth OD, locus YNL183C, strain NPR1, hits give low values
Screen size: about 5,500 compounds; about 2,000 (36%) were called active. Roughly 18% stayed inconclusive and do not appear here. Some of the results follow.
VALUE TYPE: normalized growth

# COMPOUND, REPORTED
records = [
    ("NCCCN=c1ccc2c3c1c(O)c1c(O)ccc(=O)c1c3[nH]n2CCNCCO", 1),
    ("CNC1(C)C2CCC(C2)C1(C)C (centres undefined)", 0.971),
    ("CC1(C)C2CCC1(C)C(O)C2 (centres undefined)", 0.947),
    ("CC1(C)C2CC[C@]3(C)C(C(=O)C=C4[C@H]5C[C@@](C)(C(=O)O)CC[C@]5(C)CC[C@]43C)[C@@]2(C)CC[C@@H]1O (some centres undefined)", 0.946),
    ("O=C(O)COc1cc(Cl)c(Cl)cc1Cl", 0.953),
    ("CC1(C)C2CC[C@]3(C)C(C(=O)C=C4[C@@H]5C[C@@](C)(C(=O)O)CC[C@]5(C)CC[C@]43C)[C@@]2(C)CC[C@@H]1O (some centres undefined)", 0.933),
    ("Cn1cncc1S(=O)(=O)/C(C#N)=C/c1ccccc1Sc1ccc(Cl)cc1", 0.807),
    ("c1ccc(CN(CC2=NCCN2)c2ccccc2)cc1", 0.975),
    ("CC(C)=CCc1c(O)cc2oc(C)cc(=O)c2c1O", 0.91),
]

###

- EXPERIMENT SUMMARY: chemical genetic growth profiling, strain panel (AID 1159580);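 note: tested at 20 µM; growth read once vehicle control cultures reached saturation at 30 °C; 1 = growth at the plate median or of vehicle wells; lower values mean less growth of the strain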
- TEST CONTEXT: S. cerevisiae deletion strains, growth OD, locus YHR079C, strain IRE1, hits give low values
The whole screen tested about 5,500 compounds, of which about 2,000 (36%) were called active. Roughly 18% stayed inconclusive and do not appear here. Some of the results follow.

# COMPOUND, normalized growth
measured = [
    ("CC(C)=CCc1c(O)cc2oc(C)cc(=O)c2c1O", 0.971),
    ("O=C(O)COc1cc(Cl)c(Cl)cc1Cl", 1.02),
    ("COc1ccc2c(c1)OC[C@@H](Cc1ccc(OC)c(OC)c1)[C@@H]2O", 1.01),
    ("CC(=O)CC(=O)CCC(=O)O", 0.996),
    ("COc1cc(OC)c2c(c1)O[C@H](c1ccc(OC)c(OC)c1)[C@@H](O)C2", 0.992),
    ("N=c1nc(N2CCCCC2)cc(N)n1O", 0.997),
    ("O=c1ccc2cc(O)c(O)cc2o1", 0.976),
    ("C/C(=N/NC(N)=S)c1ccc(Oc2c(Cl)cncc2Cl)cc1", 0.932),
    ("CN1CCCC(n2nc(Cc3ccc(Cl)cc3)c3ccccc3c2=O)CC1 (centres undefined)", 1.02),
    ("C=C1CC[C@H](O)C/C1=C/C=C1\\CCCC2(C)C1CCC2C(C)CCCC(C)C (some centres undefined)", 0.925),
    ("COc1ccc2c(c1)OC[C@@H](Cc1ccc(OC)c(OC)c1)[C@H]2O", 0.956),
    ("COC(=O)COc1ccc(Cl)cc1Cl", 1.03),
    ("O=C(CCN1CCCCC1)c1ccc(-c2ccccc2)cc1", 0.691),
    ("CCC(C(=O)O)c1ccccc1 (centres undefined)", 0.959),
    ("O=C(O)C1CC([C@@H]2CCCCN2)CN2CCCCC12 (some centres undefined)", 0.998),
    ("O=c1ccc2ccccc2o1", 0.957),
    ("CC1(C)C2CC[C@]3(C)C(C(=O)C=C4[C@@H]5C[C@@](C)(C(=O)O)CC[C@]5(C)CC[C@]43C)[C@@]2(C)CC[C@@H]1O (some centres undefined)", 0.973),
    ("O=C(/C=C/C=C/c1ccc2c(c1)OCO2)N1CCCCC1", 0.977),
    ("C[N+](C)(C)CC(=O)[O-]", 0.989),
]

###

Overview of reported normalized growth across a group of compounds:
- EXPERIMENT SUMMARY: chemical genetic growth profiling, strain panel (AID 1159580);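 note: tested at 20 µM; growth read once vehicle control cultures reached saturation at 30 °C; 1 = growth at the plate median or of vehicle wells; lower values mean less growth of the strain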
- TEST CONTEXT: S. cerevisiae deletion strains, growth OD, locus YCL016C, strain dcc1, hits give low values
Among all 5,500 compounds or so, about 2,000 (36%) were called active. Another 18% or so got no clear call; they are omitted. This is one part of the list.

# COMPOUND, normalized growth
data = [
    ("OC(CCN1CCCCC1)(c1ccccc1)c1ccccc1", 0.975),
    ("CC(C(=O)O)c1ccc2c(c1)[nH]c1ccc(Cl)cc12 (stereo not given)", 0.951),
    ("C[CH2][Hg][S]c1ccccc1C(=O)O", 0.0628),
    ("CC(C)(C)CC(C)(C)c1ccc(OCCOCC[N+](C)(C)Cc2ccccc2)cc1", 0.0699),
    ("c1ccc(CN(CC2=NCCN2)c2ccccc2)cc1", 0.976),
    ("CC1(C)C2CC[C@]3(C)C(C(=O)C=C4[C@@H]5C[C@@](C)(C(=O)O)CC[C@]5(C)CC[C@]43C)[C@@]2(C)CC[C@@H]1OC(=O)CCC(=O)O (stereo not given in full)", 0.979),
    ("COc1ccc2cc1Oc1ccc(cc1)C[C@H]1c3cc(c(OC)cc3CCN1C)Oc1c(OC)c(OC)cc3c1[C@H](C2)N(C)CC3", 0.968),
    ("C=CCc1ccc2c(c1)OCO2", 1.05),
    ("O=C(Cc1ccccc1)NO", 0.96),
    ("Cc1cc(C(C)(C)CC(C)(C)C)ccc1OCCOCC[N+](C)(C)Cc1ccccc1", 0.0604),
    ("CCc1nc(N)nc(N)c1-c1ccc(Cl)cc1", 0.997),
    ("COc1ccc(-c2cc(=O)c3c(O)cc(OC)c(OC)c3o2)c(OC)c1", 1),
    ("CCCCOc1ccc(CC(=O)NO)cc1", 0.967),
    ("CC(=O)O[C@]1(C(C)=O)CCC2C3C[C@H](C)C4=CC(=O)CC[C@]4(C)C3CC[C@@]21C (stereo not given in full)", 0.916),
    ("COc1ccc2c(c1)OC[C@@H](Cc1ccc(OC)c(OC)c1)[C@H]2O", 1),
    ("CCCCCC(=O)O[C@]1(C(C)=O)CCC2C3CCC4=CC(=O)CC[C@]4(C)C3CC[C@@]21C (stereo not given in full)", 1),
    ("CC(C)(CO)C(O)C(=O)NCCCO (stereo not given)", 1.02),
    ("NCC1CCCCC1CC(=O)O (stereo not given)", 1),
    ("COc1ccc(C2CC(=O)c3ccc(OC)cc3O2)cc1 (stereo not given)", 0.939),
    ("O=C1CC(c2ccc(O)c(O)c2)Oc2cc(O)cc(O)c21 (stereo not given)", 1.01),
    ("COc1c2c(c(CC=C(C)C)c3oc(=O)c(-c4ccc(O)cc4)c(O)c13)OC(C)(C)C=C2", 0.938),
    ("COC(=O)COc1cc(Cl)c(Cl)cc1Cl", 1.01),
    ("C[C@@H]1O[C@@H](O[C@H]2[C@@H](Oc3cc(O)c4c(c3)O[C@H](c3ccc(O)cc3)CC4=O)O[C@H](CO)[C@@H](O)[C@@H]2O)[C@H](O)[C@H](O)[C@H]1O", 0.972),
    ("Cc1cccc(Nc2cc(Cl)nc(SCC(=O)O)n2)c1C", 1.01),
    ("COc1ccc2cc1Oc1ccc(cc1)C[C@H]1c3c(cc4c(c3Oc3cc5c(cc3OC)CCN(C)[C@@H]5C2)OCO4)CCN1C", 1.03),
    ("CC(C)CC1C(=O)N2CCC[C@H]2C2(O)O[C@](NC(=O)C3C=C4c5cccc6[nH]c(Br)c(c56)C[C@H]4N(C)C3)(C(C)C)C(=O)N12 (stereo not given in full)", 0.995),
    ("CC(=O)O[C@]1(C(C)=O)CCC2C3C=C(C)C4=CC(=O)CCC4(C)C3CCC21C (stereo not given in full)", 0.971),
    ("COC(=O)[C@@H]1C(O)CC[C@H]2CN3CCc4c([nH]c5ccccc45)[C@@H]3C[C@@H]21 (stereo not given in full)", 1.02),
    ("CC(=O)O[C@@](C)(CCC=C(C)C)C1CC=C(C)CC1 (stereo not given in full)", 0.996),
    ("CC(=O)O[C@]1(C(C)=O)CCC2C3C=C(Cl)C4=CC(=O)CC[C@]4(C)C3CC[C@@]21C (stereo not given in full)", 0.988),
    ("CC(=O)[C@H]1CCC2C3C[C@H](C)C4=CC(=O)CC[C@]4(C)C3[C@@H](O)C[C@@]21C (stereo not given in full)", 0.953),
    ("COc1ccc([C@@H]2CC(=O)c3c(O)cc(O)cc3O2)cc1O", 0.961),
    ("O=C1C[C@@H](c2ccc(O)cc2)Oc2cc(O)cc(O)c21", 0.969),
    ("CN1CCc2cc3c(cc2C1O)OCO3 (stereo not given)", 1.01),
    ("NC(N)=Nc1nc(CSCCC(N)=NS(N)(=O)=O)cs1", 0.992),
    ("CN=C(NC#N)NCCSCc1nc(N=C(N)N)cs1", 0.984),
    ("C[N+](C)(C)CC(=O)[O-]", 1),
    ("C1CCc2nnnn2CC1", 1),
    ("NC(=O)N1c2ccccc2CC(=O)c2ccccc21", 1.01),
    ("C[C@@H](N)CO", 0.991),
]

Recorded values, source PubChem BioAssay AID1159580.
